// provenance: ChEMBL document CHEMBL1122929

# Assayed system: Adrenergic receptor alpha-1 (Oryctolagus cuniculus)
# Test name: pA2 value for phenylephrine antagonist towards at alpha-1 adrenergic receptor was determined in rabbit aorta
Recorded metric: pA2
Enter the number alone.

Challenge: // lookup pA2 | system=Adrenergic receptor alpha-1 (Oryctolagus cuniculus) | key= Cc1cc2c(s1)CCC(CN[C@H]1CC[C@@H](Oc3ccccc3)[C@H]1O)C2=O (some centres undefined)
Response given: 7.28

Challenge: Which measured pA2 belongs to Cc1cc2c(s1)CCC(CN[C@@H]1CC[C@@H](Oc3ccccc3)[C@@H]1O)C2=O.Cl (some centres undefined) , tested on Adrenergic receptor alpha-1 (Oryctolagus cuniculus)?
Response given: 8.13

Challenge: Record Cc1cc2c(s1)CCC(CN[C@H]1CC[C@@H](Oc3ccccc3)[C@@H]1O)C2=O (some centres undefined) : what is its pA2 with Adrenergic receptor alpha-1 (Oryctolagus cuniculus)?
Response given: 7.04

Challenge: Request body: readout pA2, system Adrenergic receptor alpha-1 (Oryctolagus cuniculus), query Cc1cc2c(s1)CCC(CN[C@@H]1CC[C@@H](Oc3ccccc3)[C@H]1O)C2=O (some centres undefined) . Return the value.
Response given: 7.4

====

# Tested on: Canis familiaris
# Test name: Mean arterial blood pressure (MABP) was evaluated in anesthetized dog after intravenous administration of 1 mg/kg of compound
# Type: functional, Canis lupus familiaris
Recorded metric: Max delta MABP (mmHg)
Express your answer in mmHg, writing the number without its unit.

{"columns": ["Compound", "Assayed system", "Max delta MABP [mmHg]"],
 "data": [
  ["Cc1cc2c(s1)CCC(CN[C@@H]1CC[C@@H](Oc3ccccc3)[C@@H]1O)C2=O.Cl (some centres undefined)", "Canis familiaris", -47],
  ["Cc1cc2c(s1)CCC(CN[C@H]1CC[C@@H](Oc3ccccc3)[C@H]1O)C2=O (some centres undefined)", "Canis familiaris", -16]
]}

Challenge: Consider the compound shown here: Cc1cc2c(s1)CCC(CN[C@@H]1CC[C@@H](Oc3ccccc3)[C@H]1O)C2=O (some centres undefined) What is its recorded Max delta MABP?
Response given: -31

Challenge: Consider the compound Cc1cc2c(s1)CCC(CN[C@H]1CC[C@@H](Oc3ccccc3)[C@@H]1O)C2=O (some centres undefined) and give its measured Max delta MABP.
Response given: -8

====

# Assayed system: Adrenergic receptor alpha-2 (Rattus norvegicus, UniProt P22086+P19328+P22909)
# Sequence (P22086 whole entry): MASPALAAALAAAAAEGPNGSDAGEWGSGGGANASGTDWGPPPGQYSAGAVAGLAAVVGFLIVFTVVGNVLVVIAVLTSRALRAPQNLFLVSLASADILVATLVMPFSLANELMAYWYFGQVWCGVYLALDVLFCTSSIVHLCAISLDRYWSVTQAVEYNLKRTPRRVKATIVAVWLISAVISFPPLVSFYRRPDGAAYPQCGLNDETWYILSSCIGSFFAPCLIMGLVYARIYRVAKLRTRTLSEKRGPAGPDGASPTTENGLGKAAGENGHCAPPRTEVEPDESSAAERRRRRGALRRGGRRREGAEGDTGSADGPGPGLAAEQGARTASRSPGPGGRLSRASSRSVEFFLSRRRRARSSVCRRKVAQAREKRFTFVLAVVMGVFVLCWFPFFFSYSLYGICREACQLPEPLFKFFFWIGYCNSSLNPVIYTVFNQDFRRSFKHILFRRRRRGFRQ
# Sequence (P19328 whole entry): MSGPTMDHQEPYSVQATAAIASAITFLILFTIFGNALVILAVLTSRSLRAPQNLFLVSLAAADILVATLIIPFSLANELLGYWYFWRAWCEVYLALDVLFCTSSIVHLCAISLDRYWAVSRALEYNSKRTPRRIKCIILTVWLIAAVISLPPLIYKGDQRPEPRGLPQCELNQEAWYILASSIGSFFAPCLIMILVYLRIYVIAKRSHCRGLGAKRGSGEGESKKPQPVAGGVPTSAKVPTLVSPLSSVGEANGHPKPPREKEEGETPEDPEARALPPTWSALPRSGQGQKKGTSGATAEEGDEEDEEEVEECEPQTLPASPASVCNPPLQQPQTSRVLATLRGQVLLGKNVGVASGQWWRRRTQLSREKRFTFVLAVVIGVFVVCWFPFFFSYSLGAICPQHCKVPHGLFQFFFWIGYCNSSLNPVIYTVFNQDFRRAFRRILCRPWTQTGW
# Sequence (P22909 whole entry): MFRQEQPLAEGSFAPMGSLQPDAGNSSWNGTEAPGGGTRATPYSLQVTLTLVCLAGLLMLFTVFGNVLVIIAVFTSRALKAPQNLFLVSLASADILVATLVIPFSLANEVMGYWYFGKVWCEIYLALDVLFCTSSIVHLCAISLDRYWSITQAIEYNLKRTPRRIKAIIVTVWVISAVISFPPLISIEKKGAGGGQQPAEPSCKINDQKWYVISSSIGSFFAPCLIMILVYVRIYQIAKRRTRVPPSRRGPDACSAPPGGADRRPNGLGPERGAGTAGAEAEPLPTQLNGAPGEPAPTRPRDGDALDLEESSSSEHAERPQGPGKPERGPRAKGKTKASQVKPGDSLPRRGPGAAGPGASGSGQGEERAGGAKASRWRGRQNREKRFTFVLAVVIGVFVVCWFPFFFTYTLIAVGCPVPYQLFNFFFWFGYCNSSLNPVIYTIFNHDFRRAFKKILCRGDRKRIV
# Test name: Ability to inhibit 50% specific binding of [3H]-p-amino clonidine radioligand to alpha-2 adrenergic receptor in rat cerebrocortex
# Format: tissue-based, Cortex
Measured IC50 values are reported for all entries that follow.
Provide the reading as a plain figure in nM.

Challenge: What does the data say about its IC50? Entry: Cc1cc2c(s1)CCC(CN[C@@H]1CC[C@@H](Oc3ccccc3)[C@@H]1O)C2=O.Cl (some centres undefined)
Response given: 800

Challenge: Recorded IC50 of Cc1cc2c(s1)CCC(CN[C@H]1CC[C@@H](Oc3ccccc3)[C@H]1O)C2=O (some centres undefined) , please.
Response given: 600

Challenge: Returns the measured IC50 for the input compound. Input: Cc1cc2c(s1)CCC(CN[C@@H]1CC[C@@H](Oc3ccccc3)[C@H]1O)C2=O (some centres undefined)
Response given: 100

====

Recorded IC50 for the following molecules
# Assayed system: Adrenergic receptor alpha-1 (Rattus norvegicus, UniProt P15823+P23944+P43140)
# Sequence (P15823 whole entry): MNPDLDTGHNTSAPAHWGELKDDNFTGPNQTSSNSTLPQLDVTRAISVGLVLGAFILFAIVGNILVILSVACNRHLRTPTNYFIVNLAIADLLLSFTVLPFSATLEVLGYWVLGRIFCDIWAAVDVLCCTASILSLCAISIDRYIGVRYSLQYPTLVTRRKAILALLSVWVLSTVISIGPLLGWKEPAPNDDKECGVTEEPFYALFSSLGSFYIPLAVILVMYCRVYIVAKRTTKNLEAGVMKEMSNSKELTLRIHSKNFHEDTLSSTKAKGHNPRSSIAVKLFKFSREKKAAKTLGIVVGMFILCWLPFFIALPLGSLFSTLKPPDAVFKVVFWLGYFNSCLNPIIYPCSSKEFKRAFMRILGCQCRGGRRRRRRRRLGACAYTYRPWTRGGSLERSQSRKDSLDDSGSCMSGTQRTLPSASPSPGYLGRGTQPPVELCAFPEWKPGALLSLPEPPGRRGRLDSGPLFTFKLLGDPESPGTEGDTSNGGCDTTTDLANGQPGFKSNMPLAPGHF
# Sequence (P23944 whole entry): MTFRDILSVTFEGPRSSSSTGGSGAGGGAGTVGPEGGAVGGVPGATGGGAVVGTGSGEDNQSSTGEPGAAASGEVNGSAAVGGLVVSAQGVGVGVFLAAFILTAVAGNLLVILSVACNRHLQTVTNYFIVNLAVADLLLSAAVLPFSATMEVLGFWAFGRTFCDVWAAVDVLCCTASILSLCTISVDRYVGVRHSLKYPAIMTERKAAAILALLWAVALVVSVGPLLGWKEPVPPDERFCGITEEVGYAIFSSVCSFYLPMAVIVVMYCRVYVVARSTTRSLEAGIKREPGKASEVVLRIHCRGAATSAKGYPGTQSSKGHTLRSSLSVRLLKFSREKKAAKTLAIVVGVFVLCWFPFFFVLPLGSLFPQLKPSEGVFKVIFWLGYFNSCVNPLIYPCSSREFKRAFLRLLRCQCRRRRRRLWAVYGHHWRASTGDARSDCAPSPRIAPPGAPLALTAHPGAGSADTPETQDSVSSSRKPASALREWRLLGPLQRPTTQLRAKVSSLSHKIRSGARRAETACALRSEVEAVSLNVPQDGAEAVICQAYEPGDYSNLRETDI
# Sequence (P43140 whole entry): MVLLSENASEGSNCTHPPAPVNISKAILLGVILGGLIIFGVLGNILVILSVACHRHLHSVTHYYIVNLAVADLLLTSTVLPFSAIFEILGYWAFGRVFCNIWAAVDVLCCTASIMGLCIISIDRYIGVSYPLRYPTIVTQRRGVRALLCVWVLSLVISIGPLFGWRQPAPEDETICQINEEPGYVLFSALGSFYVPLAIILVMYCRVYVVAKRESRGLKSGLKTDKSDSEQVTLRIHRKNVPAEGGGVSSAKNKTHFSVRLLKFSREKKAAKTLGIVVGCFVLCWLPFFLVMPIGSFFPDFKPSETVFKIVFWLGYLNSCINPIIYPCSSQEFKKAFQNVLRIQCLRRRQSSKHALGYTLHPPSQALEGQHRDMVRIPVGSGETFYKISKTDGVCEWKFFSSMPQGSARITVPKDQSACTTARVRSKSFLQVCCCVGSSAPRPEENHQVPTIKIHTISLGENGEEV
# Test name: Ability to inhibit 50% specific binding of [3H]prazosin radioligand to alpha-1 adrenergic receptor in rat cerebrocortex
# Assay type: tissue-based, Cortex
Please state the value followed by its unit.

Some solved cases for reference:
{"columns": ["Molecule", "Reported result"],
 "data": [
  ["Cc1cc2c(s1)CCC(CN[C@@H]1CC[C@@H](Oc3ccccc3)[C@@H]1O)C2=O.Cl (some centres undefined)", "8 nM"],
  ["Cc1cc2c(s1)CCC(CN[C@@H]1CC[C@@H](Oc3ccccc3)[C@H]1O)C2=O (some centres undefined)", "45 nM"],
  ["Cc1cc2c(s1)CCC(CN[C@H]1CC[C@@H](Oc3ccccc3)[C@@H]1O)C2=O (some centres undefined)", "90 nM"]
]}

# input for lookup
Challenge: I would be grateful if you could share the reported IC50 for Cc1cc2c(s1)CCC(CN[C@H]1CC[C@@H](Oc3ccccc3)[C@H]1O)C2=O (some centres undefined) .
Response given: 55 nM
